# assayed system: T1, Myo5, Q04439
# T1 sequence (Q04439 1072-1160, looked up): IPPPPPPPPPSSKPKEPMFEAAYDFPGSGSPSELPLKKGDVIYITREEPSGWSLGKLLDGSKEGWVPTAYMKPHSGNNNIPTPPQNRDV
# experimental details: SPOT array
# assay conditions: median of control spots 471
measurement kind: SPOT intensity

Recorded results for 2 binders are shown here.
| binder | measurement kind | quantitative readout |
| --- | --- | --- |
| YSRKKLPVVLSKMTL | SPOT intensity | 4 |
| RVTRKRPREPKSTND | SPOT intensity | 3 |

1. KKIRLIFTYPSTVGR
2. DLPLPDLPPEPPTEL
Exam item: Parameter check: reported SPOT intensity is higher for which label, 1 or 2 ? # respond with the chosen item's label
Marked response: 2
(2: 101, 1: 12)
